Numbers sourced from patent US10927123B2.

Target System: Beta-3 Adrenergic Receptor (Homo sapiens (Human), UniProt P13945)
Sequence (P13945 whole entry, species assumed): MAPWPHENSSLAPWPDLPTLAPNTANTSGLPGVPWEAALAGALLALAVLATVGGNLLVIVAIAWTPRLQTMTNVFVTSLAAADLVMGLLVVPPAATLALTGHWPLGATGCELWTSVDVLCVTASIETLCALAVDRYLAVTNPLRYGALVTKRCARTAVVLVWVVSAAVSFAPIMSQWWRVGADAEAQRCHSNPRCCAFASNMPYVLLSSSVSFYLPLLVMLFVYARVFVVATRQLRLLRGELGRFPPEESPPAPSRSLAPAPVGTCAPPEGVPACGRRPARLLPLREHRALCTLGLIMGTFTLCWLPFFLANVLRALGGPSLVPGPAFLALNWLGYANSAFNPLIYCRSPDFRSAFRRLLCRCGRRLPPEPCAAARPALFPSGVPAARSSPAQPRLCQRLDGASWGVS
Test Method Notes: HTRF cAMP antagonist assay (IC50 determination)
Recorded Conditions: CHO-K1 cells stably expressing recombinant receptor; antagonism of isoproterenol at EC90; cAMP readout
Parameter: IC50 (nM)

- Compound: "NCCNCc1ccc(-c2cccc(S(=O)(=O)N3CCC4(CC3)C[C@@H](NC[C@H](O)COc3cccc(S(=O)(=O)C5(CO)CC5)c3)CO4)c2)cc1"
  Units Symbol: "nM"
  Endpoint Result: 92.3

1: NCCc1ccc(-c2cccc(S(=O)(=O)N3CCC4(CC3)C[C@H](NC[C@H](O)COc3cccc(S(=O)(=O)C5(CO)CC5)c3)CO4)c2)cc1
2: NCCS(=O)(=O)c1cccc(OC[C@@H](O)CNC2COC3(CCN(S(=O)(=O)c4ccc5ccccc5c4)CC3)C2)c1 (stereo partly drawn)
Req: Returns: the argument ( 1 or 2 ) having the larger IC50. Respond using the label that marks the chosen record.
Resp: 2
